The entries that follow carry log10 Ki values tested on Adenosine receptor A1 (Rattus norvegicus, UniProt P25099), drawn from several published reports.
- measured_target: Adenosine receptor A1 (Rattus norvegicus, UniProt P25099)
- Sequence (P25099 whole entry): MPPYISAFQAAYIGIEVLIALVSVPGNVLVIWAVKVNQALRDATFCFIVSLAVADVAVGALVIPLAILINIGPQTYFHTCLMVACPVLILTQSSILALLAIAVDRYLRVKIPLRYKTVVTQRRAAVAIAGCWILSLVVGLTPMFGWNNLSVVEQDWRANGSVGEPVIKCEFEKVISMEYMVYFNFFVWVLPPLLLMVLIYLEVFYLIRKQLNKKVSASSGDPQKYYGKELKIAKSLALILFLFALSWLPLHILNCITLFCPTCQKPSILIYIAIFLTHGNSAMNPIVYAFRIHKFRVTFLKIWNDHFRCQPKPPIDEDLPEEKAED
Field: value | Transform: log10 | Quantity: Ki | Unit: µM

>>> numeric_value("CCOCCCc1nc(N)c2ncn(C3O[C@H](CO)[C@@H](O)[C@H]3O)c2n1 (stereo not given in full)")
-0.61
>>> numeric_value("Nc1nc(C#CC2CCCCC2)nc2c1ncn2C1O[C@H](CO)[C@@H](O)[C@H]1O (stereo not given in full)")
-0.86
>>> numeric_value("OC[C@@]12C[C@@H]1[C@@H](n1cnc3c(NCc4cccc(I)c4)nc(Cl)nc31)C[C@@H]2O")
0.94

Case Nc1nc(N2CCN3C[C@H](CO)CC[C@H]3C2)nc2nc(-c3ccco3)nn12 (racemic) , Adenosine receptor A1 (Rattus norvegicus, UniProt P25099), log10 Ki recorded as 0.79

For COCCn1c(=O)c2c(nc(Cc3c(F)cccc3F)n2C)n(Cc2ccco2)c1=O on Adenosine receptor A1 (Rattus norvegicus, UniProt P25099), measured log10 Ki was -0.71

###

For reference, the following pKi results for Adenosine receptor A1 (Rattus norvegicus, UniProt P25099) were taken from various sources.
# log scale: pKi equals minus log10 of the concentration in mol/L

>>> numeric_value("Cn1c(=O)c2cc3[nH]cnc3cc2n(C)c1=O")
4.62

Value sought: pKi, system Adenosine receptor A1 (Rattus norvegicus, UniProt P25099), item Nc1ccccc1C(=O)Nc1nc(-c2ccccc2)nc2c1nnn2Cc1ccccc1 . Result: 7.47

Result for OC[C@H]1OC(n2cnc3c(NCC(c4ccccc4)c4c(Cl)cccc4Cl)ncnc32)[C@H](O)[C@@H]1O (stereo not given in full) , tested on Adenosine receptor A1 (Rattus norvegicus, UniProt P25099), pKi: 7.21

Known value: Adenosine receptor A1 (Rattus norvegicus, UniProt P25099) pKi of the compound Cc1ccc([C@H](C)n2c3ccccc3c3c(N)nc(-c4ccccc4)nc32)cc1 equals 6.53

###

- measured_target: Adenosine receptor A1 (Rattus norvegicus)
- Sequence (P25099 whole entry): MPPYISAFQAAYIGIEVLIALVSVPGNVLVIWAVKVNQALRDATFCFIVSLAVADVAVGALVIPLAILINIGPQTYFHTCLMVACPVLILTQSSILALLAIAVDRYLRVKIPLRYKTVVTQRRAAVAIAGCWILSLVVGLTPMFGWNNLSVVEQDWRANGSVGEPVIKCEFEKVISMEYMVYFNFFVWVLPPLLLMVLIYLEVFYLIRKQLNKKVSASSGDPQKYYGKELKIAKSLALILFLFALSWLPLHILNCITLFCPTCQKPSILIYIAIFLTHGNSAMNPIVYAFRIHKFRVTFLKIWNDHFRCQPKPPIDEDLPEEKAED
Several publications report log10 Ki on Adenosine receptor A1 (Rattus norvegicus); those values are gathered here.
Values are log10 of Ki in µM.

>>> numeric_value("CCCn1c(=O)c2c(nc3n2CCCN3Cc2ccc(C)cc2)n(CCC)c1=O")
0.00
>>> numeric_value("OC[C@H]1OC(n2cnc3c(NC4CCCC4)nc(Nc4ccccc4)nc32)[C@H](O)[C@@H]1O (stereo partly specified)")
-1.91
>>> numeric_value("O=C(Nc1nc(-c2ccccc2)ns1)C1CCC(O)CC1 (stereo in doubt; 8n)")
-1.38
>>> numeric_value("OC[C@H]1O[C@@H](n2cnc3c(NN4CCCC(O)C4)nc(Cl)nc32)[C@H](O)[C@@H]1O (mixture of isomers)")
-1.96
>>> numeric_value("Cn1c(=O)c2c(nc(/C=C/c3cccc(NC(=O)CCCC(=O)O)c3)n2C)n(C)c1=O")
1.35
>>> numeric_value("Nc1nc2c(cnn2CCCc2ccc(O)cc2)c2nc(-c3ccco3)nn12")
-0.13
>>> numeric_value("OC[C@H]1OC(n2cnc3c(NCCC(c4ccccc4)c4ccccc4)ncnc32)[C@H](O)[C@@H]1O (stereo partly specified)")
-1.10
>>> numeric_value("OC[C@H]1O[C@@H](n2cnc3c(N[C@H]4C[C@H]5CC[C@@H]4C5)ncnc32)[C@H](O)[C@@H]1O")
-3.47
>>> numeric_value("O=C(CCCc1ccccc1)Nc1nc2cc(Cl)ccc2c(=O)s1")
-1.19
>>> numeric_value("Cc1ccc(NC(=O)Nc2nc(N(C)C)nc3nc(-c4ccco4)nn23)cc1")
0.43

Observed log10 Ki on Adenosine receptor A1 (Rattus norvegicus), entry Cn1cc(CN2CCN(c3nc(N)n4nc(-c5ccco5)nc4n3)CC2)c(Cl)n1 , equals -0.38

log10 Ki value, target or system Adenosine receptor A1 (Rattus norvegicus), for CCNC(=O)[C@H]1O[C@@H](n2cnc3c(NC(=O)NCCc4ccc(OC)c(OC)c4)ncnc32)[C@H](O)[C@@H]1O : 0.25

log10 Ki of Cc1nc2nc(-c3ccccc3)[nH]c(N[C@H](C)c3ccccc3)c-2c1C , assay on Adenosine receptor A1 (Rattus norvegicus), is -2.17
